From: patent US5591891A

Biological target: neutral endopeptidase (NEP) (Homo sapiens, UniProt P08473)
Sequence (P08473 whole entry, species assumed): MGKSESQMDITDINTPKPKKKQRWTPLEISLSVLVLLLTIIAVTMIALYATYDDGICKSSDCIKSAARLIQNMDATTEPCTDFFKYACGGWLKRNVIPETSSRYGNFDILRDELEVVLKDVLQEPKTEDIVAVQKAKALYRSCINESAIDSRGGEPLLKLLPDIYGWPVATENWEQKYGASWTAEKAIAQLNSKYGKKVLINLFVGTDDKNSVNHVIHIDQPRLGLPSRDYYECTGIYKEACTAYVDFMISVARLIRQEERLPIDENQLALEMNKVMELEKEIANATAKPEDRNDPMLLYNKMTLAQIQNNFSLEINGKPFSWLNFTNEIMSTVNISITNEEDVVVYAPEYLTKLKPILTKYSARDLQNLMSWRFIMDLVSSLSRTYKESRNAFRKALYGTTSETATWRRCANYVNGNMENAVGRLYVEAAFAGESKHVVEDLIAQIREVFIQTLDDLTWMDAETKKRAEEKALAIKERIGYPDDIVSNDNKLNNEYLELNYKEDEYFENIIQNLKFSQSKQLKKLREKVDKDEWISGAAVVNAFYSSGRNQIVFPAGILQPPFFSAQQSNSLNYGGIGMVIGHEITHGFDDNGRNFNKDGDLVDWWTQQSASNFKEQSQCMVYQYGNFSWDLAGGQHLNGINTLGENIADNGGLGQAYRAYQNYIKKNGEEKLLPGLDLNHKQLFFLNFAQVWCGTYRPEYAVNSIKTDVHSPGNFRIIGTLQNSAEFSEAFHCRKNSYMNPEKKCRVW
Test: Enzymatic inhibition of neutral endopeptidase, [3H]D-Ala2-Leu-enkephalin as substrate
Type: biochemical
Conditions: Table III
assay_readout: IC50 (nM)

[
  {
    "compound": "CC[C@H](C)[C@H](NC(=O)C(S)c1ccccc1)C(=O)N[C@@H](Cc1ccc(O)cc1)C(=O)O (stereo partly drawn) [Example 28, N-(2-Mercapto-2-phenylacetyl)-Ile-Tyr]",
    "tgt": "neutral endopeptidase (NEP) (Homo sapiens, UniProt P08473)",
    "IC50 [nM]": 4.5
  }
]

P. CC(C)C[C@H](NC(=O)C(S)Cc1ccccc1)C(=O)N[C@@H](Cc1ccc(O)cc1)C(=O)O (stereo partly drawn) [Example 23, N-(2-Mercapto-3-phenylpropanoyl)-Leu-Tyr]
Q. CC[C@H](C)[C@H](NC(=O)C(S)C(C)C)C(=O)N[C@@H](Cc1ccc(O)cc1)C(=O)O (stereo partly drawn) [Example 27, N-(2-Mercapto-3-methylbutanoyl)-Ile-Tyr]
Incoming: # return whichever of P and Q has the smaller IC50 Pick one and reply with its label.
Outgoing: Q
